These entries and their values trace back to patent USRE28744E.

For each record, write down the corresponding concentration at 4 h.
experiment: absorption studies in human volunteers (oral); settings: serum, 500 mg
Give bare numbers, in ng/mL.

CC1(C)S[C@@H]2C(NC(=O)C(N)c3cccc(O)c3)C(=O)N2[C@H]1C(=O)O (some centres unmarked) | 1150

Next compound, concentration at 4 h to be filled in.
// Input: CC1(C)S[C@@H]2[C@H](NC(=O)[C@H](N)c3ccc(O)cc3)C(=O)N2[C@H]1C(=O)O . Output its concentration at 4 h only. 3100
